Taken from ChEMBL document CHEMBL1201862.

I'd appreciate it if you could supply GI50 values for the items below.
# System: HOP-92
# test description: NCI tumour cell line growth inhibition, 48 h
Active and inactive are the calls of the source. No stated cut-off is given here; in the data, active = GI50 up to about 1.1 µM and inactive = higher.

# example entries with known answers
{"columns": ["molecule", "metric name", "result"],
 "data": [
  ["C[C@@]12CCCC(=O)N1[C@@H](CO)C(c1ccccc1)O2 (stereo partly specified)", "GI50", "> 100 µM (inactive)"],
  ["NC1=NN(c2ccccc2)C2(O)c3ccncc3C3=NN(c4ccccc4)C(=O)C132 (stereo unspecified)", "GI50", "> 100 µM (inactive)"],
  ["COc1ccc(C(c2ccc3c(c2)OCO3)N2C(=O)CCC2C(=O)O)cc1 (stereo unspecified)", "GI50", "> 100 µM (inactive)"],
  ["N#C/C(=C/c1cccc(Oc2ccccc2)c1)c1ccccc1", "GI50", "93.8 µM (inactive)"],
  ["Nc1nc(NCC2(CO)CC2)cc(=O)[nH]1", "GI50", "> 100 µM (inactive)"]
]}

Would you be so kind as to report GI50 for each listed record?
1. COC(=O)C1CC(C(=O)OC)c2nc3cc([N+](=O)[O-])ccc3nc21 (stereo unspecified)
2. CC(=O)OC1(C)N=NC2(CCCCC2)O1 (stereo unspecified)
3. Cc1c(Cc2ccccc2)n(C(C)OCCN(OC(=O)Oc2ccccc2)C(=O)Oc2ccccc2)c(=O)[nH]c1=O (stereo unspecified)
4. O/N=C1/C(=C/c2ccccc2)CCCC1C(NO)c1ccccc1 (stereo unspecified)
5. Cc1ccc(S(=O)(=O)c2ccc([N+](=O)[O-])o2)cc1
6. O=C(CSCC(=O)N/N=C/c1ccc2c(c1)OCO2)N/N=C/c1ccc2c(c1)OCO2

1. > 100 µM (inactive)
2. > 100 µM (inactive)
3. 13.5 µM (inactive)
4. 33.3 µM (inactive)
5. 2.38 µM (inactive)
6. > 100 µM (inactive)

###

# Test system: SNB-78
# test description: NCI tumour cell line growth inhibition, 48 h
Activity calls are given as the source filed them. Cut-off read from the data, not from the text of the source: active = GI50 up to about 1.1 µM and inactive = higher.
Kindly state GI50 for each of the entries shown.

{"columns": ["compound", "GI50"],
 "data": [
  ["CC1(C)O[C@@H](CCl)C[C@@H](C#N)O1", "> 100 µM (inactive)"],
  ["C[N+](C)=c1nc(N2CCc3ccccc3C2)ss1.[O-][Cl+3]([O-])([O-])[O-]", "> 100 µM (inactive)"],
  ["CC1=C(C#N)C(N)=C2C(C)=C(C#N)C(N)=C12", "> 100 µM (inactive)"],
  ["CC1(C)CC(=O)C/C(=N/c2ccc([N+](=O)[O-])cc2)C1", "> 100 µM (inactive)"],
  ["CCn1c2c(n(CC)c1=S)-c1c(n(CC)c(=S)n1CC)SSSS2", "11.4 µM (inactive)"]
]}

Endpoint output: GI50 of CSc1nc2c(ncn2C2OCC(O)C(O)C2O)c(=O)n1C (stereo unspecified) . Value?
> 100 µM (inactive)

###

I'd be grateful if you could share measured GI50 for these entries.
# System: RPMI-8226
# test description: NCI tumour cell line growth inhibition, 48 h
The source made the active and inactive calls. Cut-off read from the data, not from the text of the source: active = GI50 up to about 1.1 µM and inactive = higher.

{"columns": ["compound", "metric name", "result"],
 "data": [
  ["CC(C)(C)OC(=O)CC(NC(=O)OC(C)(C)C)C(=O)N[C@@H]1CCCC[C@H]1C(=O)OCc1ccccc1 (stereo not given in full)", "GI50", "20.5 µM (inactive)"],
  ["O=C(CCC1CCCCN1)Nc1ccc2c(c1)C(=O)c1ccc(NC(=O)CCN3CCCCC3)cc1C2=O (stereo not given)", "GI50", "7.55 µM (inactive)"],
  ["COC(=O)C(=C/c1ccc(OC)cc1)/C(C(=O)O)=C(/C)c1ccccc1", "GI50", "> 100 µM (inactive)"]
]}

Parameters: items (list). Returns: GI50 for each item.
1. CC(=O)/C(=C\I)c1ccccc1
2. COC(=O)C1CC2(C)C=CC1N(C(=O)OCc1ccccc1)C2 (stereo not given)
3. COc1ccc2c(c1)CN1C(=N2)CSC1c1c(Cl)cccc1[N+](=O)[O-] (stereo not given)
4. Oc1ccc(NCc2cc(O)ccc2O)cc1
5. CN(Cc1cnc2nc(N)nc(N)c2n1)c1ccc(C(=O)NC2CCCCC2)cc1

2.03 µM (inactive)
48 µM (inactive)
15.4 µM (inactive)
4.99 µM (inactive)
> 100 µM (inactive)

// each compound listed below needs its GI50
1. CCOC(=O)N/N=C(\Cc1ccc([N+](=O)[O-])cc1)OCC
2. O=C(CN1CCOCC1)c1ccc2c(c1)oc(=O)n2CCN1CCCC1

1: > 100 µM (inactive); 2: > 100 µM (inactive)

###

# Tested on: SK-MEL-5
# test description: NCI tumour cell line growth inhibition, 48 h
Activity calls are given as the source filed them. No stated cut-off is given here; in the data, active = GI50 up to about 1.1 µM and inactive = higher. Peptide text beside a SMILES is read from it.
metric name: GI50

{"columns": ["molecule", "GI50"],
 "data": [
  ["C[N+](C)=c1nc(N2CCc3ccccc3C2)ss1.[O-][Cl+3]([O-])([O-])[O-]", "> 100 µM (inactive)"]
]}

I have 5 molecules here; please give me GI50 for each one.
1. C=C(C)C1CCC2(C)CC1c1c(c(C)cc3c1[nH]c1ccccc13)O2 (stereo unspecified)
2. CCC1(CC)C(=O)N(C(=O)c2cc(OC)c(OC)c(OC)c2)N(C(=O)c2cc(OC)c(OC)c(OC)c2)C1=O
3. COc1ccc(Nc2nn3c(=O)c4c(C)c(C)sc4nc3s2)cc1
4. COc1ccc2nc3cc(Cl)ccc3c(NCCC[N+](C)(C)CCCCCCCCCCCCCCCC[N+](C)(C)CCCNc3c4ccc(Cl)cc4nc4ccc(OC)cc34)c2c1
5. CC(C)(C)OC(=O)[N+](=N)C(=O)C1CCC(=O)N1C(=O)OCc1ccccc1 (stereo unspecified)

["> 25 µM (inactive)", "46.1 µM (inactive)", "41.1 µM (inactive)", "2 µM (inactive)", "> 100 µM (inactive)"]

For each of the molecules below, note its GI50.
1. N#C/C(=C/c1cccc(Oc2ccccc2)c1)c1ccccc1
2. COc1cc2cccc(/N=C/c3c(Br)ccc(OC)c3OC(C)C)c2cc1OC
3. COc1ccc(/C=C2\CCCCCC2=O)cc1
4. COC(=O)c1ccccc1/C=C1\Cc2cc(C)c(C)cc2C1=O
5. Cc1[nH]c2ccccc2c1/C=N/c1ccc(Oc2ccccc2)cc1
6. C[n+]1c(-c2ccc(NC(=O)c3ccc(C(=O)Nc4ccc(-c5cn6ccccc6[n+]5C)cc4)cc3)cc2)cn2ccccc21
7. Cc1nc2c(cc1OCc1ccccc1)C(=O)C1=C(C2=O)C2OC(=O)CC2OC1(C)C (stereo unspecified)
8. Cc1nn2c(=O)n(-c3cccc(-n4nnc5c(-c6ccccc6)c(C)nn5c4=O)c3C)nnc2c1-c1ccccc1

["> 100 µM (inactive)", "55.7 µM (inactive)", "> 100 µM (inactive)", "> 100 µM (inactive)", "15.2 µM (inactive)", "43.1 µM (inactive)", "1.18 µM (inactive)", "16.6 µM (inactive)"]

Report GI50 for every entry below.
1. C#CCN(N=O)C(=O)NCCCCC(NC(=O)OCc1ccccc1)C(=O)OCc1ccccc1 (stereo unspecified)
2. Nc1ccc(-c2nc3ccccc3s2)cc1F
3. O=c1[nH][nH]c(=O)n1Cc1ccccc1
4. O=C(O)CN(CCNC(=O)OCC1c2ccccc2-c2ccccc21)CCNC(=O)OCC1c2ccccc2-c2ccccc21
5. Nc1nnc(N)n1NC(=O)C(=O)Nc1ccc([N+](=O)[O-])cc1

1: 62.4 µM (inactive); 2: 20 µM (inactive); 3: > 100 µM (inactive); 4: 19.6 µM (inactive); 5: > 100 µM (inactive)

Below is a list of molecules. For each, state its recorded GI50.
1. CC1=NN=C(C)C1/N=N/c1ccc2[nH]c(C)nc2c1
2. CC(=O)OC1[C@H](OC(C)=O)C2=C(C)[C@@H](OC(C)=O)C[C@@]2(C(C)(C)O)[C@@H](OC(C)=O)[C@H]2[C@@]1(C)[C@@H](OC(C)=O)CC(OC(C)=O)[C@]21CO1 (stereo partly specified)
3. CC(=O)[C@H]1[C@H](O)C[C@@]2(C)[C@@H]3CCc4cc(O)c(OC5OC(CO)C(O)C(O)C5O)cc4C3(C)C(=O)C[C@]12C (stereo partly specified)
4. c1ccc2c(c1)cc1c3[nH]c4ccccc4c3ccn21
5. CO[C@H]1C[C@](C)(O)Cc2cc3c(c(O)c21)C(=O)c1c(O)cc2c(c1C3=O)O[C@@H]1O[C@@]2(C)[C@H](O)[C@@H](N(C)C)[C@@H]1O
6. COc1ccccc1NC(=O)NS(=O)(=O)c1ccccc1
7. COc1ccc2c3c1C(=O)CCC3CO2 (stereo unspecified)
8. CCn1c2c(n(CC)c1=S)-c1c(n(CC)c(=S)n1CC)SSSS2

1. 18.2 µM (inactive)
2. > 100 µM (inactive)
3. > 100 µM (inactive)
4. > 10 µM (inactive)
5. 1.16 µM (inactive)
6. > 100 µM (inactive)
7. > 100 µM (inactive)
8. 27 µM (inactive)

Could you tell me GI50 for each of these molecules? They are listed below.
1. Brc1ccccc2cc(-c3ccccc3)nc1-2
2. S=P(c1ccccc1)(c1ccccc1)C1(C2(P(=S)(c3ccccc3)c3ccccc3)CC2)CC1
3. CCCCCc1cccc(=O)o1
4. C=C1CC2OC(=O)C(=C)C2C(O)C2C(=C)CCC12 (stereo unspecified)
5. O=C(CN1CCOCC1)c1ccc2c(c1)oc(=O)n2CCN1CCCC1
6. O=C1c2ccccc2-c2nnc(-c3ccc([N+](=O)[O-])cc3)cc21
7. CC(=O)NC(CS)C(=O)NC(CO)C(=O)NC(CO)C(=O)NC(Cc1c[nH]c2ccccc12)C(=O)N1CCCC1C(=O)NC(CO)C(=O)NC(Cc1c[nH]c2ccccc12)C(=O)NC(Cc1c[nH]cn1)C(=O)NC(CO)C(=O)NC(Cc1c[nH]c2ccccc12)C(=O)NCC(=O)NCC(=O)NC(C)C(=O)NC(CCC(N)=O)C(=O)NC(CCCCN)C(=O)NC(C)C(=O)NC(CCCNC(=N)N)C(=O)NC(CCCCN)C(N)=O (stereo unspecified) (Ac-CSSWPSWHSWGGAQKARK-NH2; configuration not given here)

1: 6.55 µM (inactive); 2: > 100 µM (inactive); 3: > 100 µM (inactive); 4: 12.2 µM (inactive); 5: > 100 µM (inactive); 6: > 10 µM (inactive); 7: 11 µM (inactive)

List the reported GI50 of each molecule below.
1. O=C1Cc2c([nH]c3ccccc23)-c2ccccc2N1 [PAULLONE]
2. Cc1ccc2oc(=O)c(C(=O)Nc3nc(C45CC6CC(CC(C6)C4)C5)cs3)cc2c1

1. 22.8 µM (inactive)
2. > 100 µM (inactive)
